biological target: Human IP6K1 (Homo sapiens); construct: GST (N, cleaved yes); made in house; host or cells: C43 E. coli, pGEX-6P-2; assay: IP6K1 high-throughput screen of the Sigma LOPAC (ADP-Glo Max, single point); assay type: biochemical; conditions: LOPAC single-point screen, ADP-Glo Max luminescence raw signal per well
Structures can show the parent of a compound that is named as a salt.
MEASURED_PROPERTY: Raw Signal

COMPOUND | TARGET_SYSTEM | MEASURED_PROPERTY | QUANTITATIVE_READOUT
CC1CNCCN1S(=O)(=O)c1cccc2cnccc12.Cl.Cl (centres unmarked) [H-7 dihydrochloride] | Human IP6K1 (Homo sapiens) | Raw Signal | 51716
O=S(=O)(c1cccc2c(I)cccc12)N1CCCNCC1 [ML-7] | Human IP6K1 (Homo sapiens) | Raw Signal | 65221
CC(CN(C)C)CN1c2ccccc2CCc2ccccc21 (centres unmarked) [Trimipramine maleate] | Human IP6K1 (Homo sapiens) | Raw Signal | 53117
Nc1nc(N)c2nc(-c3ccccc3)c(N)nc2n1 [Triamterene] | Human IP6K1 (Homo sapiens) | Raw Signal | 65476
CCCN1CCc2cccc3c2[C@H]1Cc1ccc(O)c(O)c1-3.Cl [R(-)-Propylnorapomorphine hydrochloride] | Human IP6K1 (Homo sapiens) | Raw Signal | 49804
C[C@@H]1O[C@@H](O[C@H]2C[C@@H](O)[C@]3(CO)[C@H]4[C@H](O)C[C@]5(C)[C@@H]([C@@H]6COC(=O)C6)CC[C@]5(O)[C@@H]4CC[C@]3(O)C2)[C@H](O)[C@H](O)[C@H]1O [Dihydroouabain] | Human IP6K1 (Homo sapiens) | Raw Signal | 48437
CC1=C(CC(=O)O)c2cc(F)ccc2/C1=C\c1ccc([S+](C)[O-])cc1 (centres unmarked) [Sulindac] | Human IP6K1 (Homo sapiens) | Raw Signal | 51494
CC(C)C(=O)Nc1ccc([N+](=O)[O-])c(C(F)(F)F)c1 [Flutamide] | Human IP6K1 (Homo sapiens) | Raw Signal | 64684

----------
molecular target: Human IP6K1 (Homo sapiens, UniProt Q92551); construct: GST (N, cleaved yes); made in house; host or cells: C43 E. coli, pGEX-6P-2; assay: IP6K1 inhibition dose-response assay (ADP-Glo Max); assay type: biochemical; conditions: 200μM IP6, 300μM ATP, 60nM IP6K1, 15 minutes; read-out: IC50 IP6K1
Sequence (Q92551 whole entry): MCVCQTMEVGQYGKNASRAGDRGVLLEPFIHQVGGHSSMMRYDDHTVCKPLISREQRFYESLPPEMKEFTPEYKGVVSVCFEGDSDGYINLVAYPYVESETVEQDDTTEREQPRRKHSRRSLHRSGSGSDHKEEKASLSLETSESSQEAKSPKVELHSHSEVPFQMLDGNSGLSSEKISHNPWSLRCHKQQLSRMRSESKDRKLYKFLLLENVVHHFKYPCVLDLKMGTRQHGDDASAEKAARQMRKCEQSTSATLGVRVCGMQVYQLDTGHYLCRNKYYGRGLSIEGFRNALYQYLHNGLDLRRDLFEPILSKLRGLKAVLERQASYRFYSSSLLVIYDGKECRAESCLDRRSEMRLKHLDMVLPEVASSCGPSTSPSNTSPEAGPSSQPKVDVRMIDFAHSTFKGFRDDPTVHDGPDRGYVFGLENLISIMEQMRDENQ
pIC50: −log10 of the molar value.
MEASURED_PROPERTY: pIC50

ENTRY_SMILES | MEASURED_PROPERTY | QUANTITATIVE_READOUT
O=[N+]([O-])c1ccc(CNc2nc(NCc3cccc(C(F)(F)F)c3)nc3nc[nH]c23)cc1 | pIC50 | 4.68

----------
biological target: Human IP6K1 (Homo sapiens, UniProt Q92551); construct: GST (N, cleaved yes); made in house; host or cells: C43 E. coli, pGEX-6P-2; assay: IP6K1 high-throughput screen of the Sigma LOPAC (ADP-Glo Max, single point); format: biochemical; conditions: LOPAC single-point screen; Z-score relative to plate average and StDev;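 note: final compound concentration 10µM in 5% DMSO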
Counter-ions that a name gives are not always drawn.
// reported Z-score per item
MEASURED_PROPERTY: Z-score

COMPOUND | TARGET_SYSTEM | RESULT
Clc1ccc2c(c1)C(N1CCNCC1)=Nc1ccccc1O2 [Amoxapine] | Human IP6K1 (Homo sapiens, UniProt Q92551) | -1.224
CCCN1CCOC2c3cc(O)ccc3OCC21.Cl (racemic) [(±)-PD 128,907 hydrochloride] | Human IP6K1 (Homo sapiens, UniProt Q92551) | -0.4763
C[C@H](Cc1ccc(OCC(=O)[O-])cc1)NC[C@H](O)c1cccc(Cl)c1.[Na+] [BRL 37344 sodium] | Human IP6K1 (Homo sapiens, UniProt Q92551) | -0.6924
NCCc1ccc(O)c(O)c1 [Dopamine hydrochloride] | Human IP6K1 (Homo sapiens, UniProt Q92551) | -2.125
C[N+](C)(C)CCOC(=O)CBr.[Br-] [Bromoacetylcholine bromide] | Human IP6K1 (Homo sapiens, UniProt Q92551) | -0.7302
CC(=O)NCCc1c[nH]c2ccc(O)cc12 [N-Acetyl-5-hydroxytryptamine] | Human IP6K1 (Homo sapiens, UniProt Q92551) | -0.5041
CC1=C(CC(=O)O)c2cc(F)ccc2/C1=C\c1ccc([S+](C)[O-])cc1 (stereo not shown) [Sulindac] | Human IP6K1 (Homo sapiens, UniProt Q92551) | -0.8801
Nn1nnc2ccccc21 [1-Aminobenzotriazole] | Human IP6K1 (Homo sapiens, UniProt Q92551) | -0.828
Cc1nccc2c1[nH]c1ccccc12 [Harmane] | Human IP6K1 (Homo sapiens, UniProt Q92551) | -0.6834
CCCN1CCC[C@@H]2Cc3nc(N)ncc3C[C@H]21.Cl.Cl [Quinelorane dihydrochloride] | Human IP6K1 (Homo sapiens, UniProt Q92551) | -0.5661
Cl.O=c1cc(N2CCOCC2)oc2c(-c3ccccc3)cccc12 [LY-294,002 hydrochloride] | Human IP6K1 (Homo sapiens, UniProt Q92551) | -0.5996
C=CCN1CC[C@]23c4c5ccc(O)c4O[C@@H]2/C(=N/N=C2\CC[C@@]4(O)C6Cc7ccc(O)c8c7[C@@]4(CCN6CC=C)[C@@H]2O8)CC[C@@]3(O)C1C5.Cl.Cl [Naloxonazine dihydrochloride] | Human IP6K1 (Homo sapiens, UniProt Q92551) | -0.5215
NC(Cc1ccc(Cl)cc1)C(=O)O (racemic) [(±)-p-Chlorophenylalanine] | Human IP6K1 (Homo sapiens, UniProt Q92551) | -0.4773
O=c1cc(-c2ccc(O)cc2)oc2cc(O)cc(O)c12 [Apigenin] | Human IP6K1 (Homo sapiens, UniProt Q92551) | -0.6295
Nc1ccn([C@H]2CC[C@@H](CO)O2)c(=O)n1 [2 ,3 -dideoxycytidine] | Human IP6K1 (Homo sapiens, UniProt Q92551) | -0.9702
C#CC(N)CCC(=O)O (stereo not shown) [gamma-Acetylinic GABA] | Human IP6K1 (Homo sapiens, UniProt Q92551) | -0.5147
COC[C@H]1OC(=O)c2coc3c2[C@@]1(C)C1=C(C3=O)[C@@H]2CCC(=O)[C@@]2(C)C[C@H]1OC(C)=O [Wortmannin from Penicillium funiculosum] | Human IP6K1 (Homo sapiens, UniProt Q92551) | -0.4744
Cl.c1ccc(CN(CC2=NCCN2)c2ccccc2)cc1 [Antozoline hydrochloride] | Human IP6K1 (Homo sapiens, UniProt Q92551) | -0.6519
Cl.N=C(N)NC(=N)Nc1cccc(Cl)c1 | Human IP6K1 (Homo sapiens, UniProt Q92551) | -1.085
O=C(CCCN1CCC(O)(c2ccc(Cl)cc2)CC1)c1ccc(F)cc1 [Haloperidol] | Human IP6K1 (Homo sapiens, UniProt Q92551) | -0.6588
COC(=O)c1c(-c2cc(OC)c(OC)c(OC)c2)c2ccnc(OCc3ncccn3)c2c(=O)n1Cc1ccnc(C)c1 [T-0156] | Human IP6K1 (Homo sapiens, UniProt Q92551) | -0.476
CCC(C)N(C)C(=O)c1cc2ccccc2c(-c2ccccc2Cl)n1 (stereo not shown) [PK 11195] | Human IP6K1 (Homo sapiens, UniProt Q92551) | -0.6351
O=C(/C=C/c1ccc(O)c(O)c1)OCCc1ccccc1 [Caffeic acid phenethyl ester] | Human IP6K1 (Homo sapiens, UniProt Q92551) | -0.7042
CCCC(C(=O)OCCN(CC)CC)(c1ccccc1)c1ccccc1.Cl [SKF-525A hydrochloride] | Human IP6K1 (Homo sapiens, UniProt Q92551) | -0.5297
N#CCCN.N#CCCN.O=C(O)/C=C/C(=O)O [3-Aminopropionitrile fumarate] | Human IP6K1 (Homo sapiens, UniProt Q92551) | -0.7565
COc1cc(CC(C)N)c(OC)cc1I.Cl (racemic) [(±)-DOI hydrochloride] | Human IP6K1 (Homo sapiens, UniProt Q92551) | -0.6178
CC(=O)N1CCN(c2ccc(OCC3COC(Cn4ccnc4)(c4ccc(Cl)cc4Cl)O3)cc2)CC1 (stereo not shown) [Ketoconazole] | Human IP6K1 (Homo sapiens, UniProt Q92551) | -0.8069
NC[C@H](O)c1ccc(O)c(O)c1.O=C(O)C(O)C(O)C(=O)O [L(-)-Norepinephrine bitartrate] | Human IP6K1 (Homo sapiens, UniProt Q92551) | -4.934
Nc1ncnc2c1ncn2[C@@H]1O[C@H](COP(=O)(O)CP(=O)(O)OP(=O)([O-])[O-])[C@@H](O)[C@H]1O.[Li+].[Li+] | Human IP6K1 (Homo sapiens, UniProt Q92551) | -0.5682
N=C(N)NC(=N)Nc1ccccc1 [1-Phenylbiguanide] | Human IP6K1 (Homo sapiens, UniProt Q92551) | -0.7186
CCCN(CCC)CCc1ccc(O)c(O)c1 [Dipropyldopamine hydrobromide] | Human IP6K1 (Homo sapiens, UniProt Q92551) | -0.5522
Br.CN=c1nc(-c2ccccc2)n(-c2ccccc2)s1 [SCH-202676 hydrobromide] | Human IP6K1 (Homo sapiens, UniProt Q92551) | -0.928
C#CCn1c(=O)c2c(ncn2C)n(C)c1=O [3,7-Dimethyl-I-propargylxanthine] | Human IP6K1 (Homo sapiens, UniProt Q92551) | -0.9452
O=c1[nH]c2cc(Cl)ccc2c(O)c1-c1cccc(Oc2ccccc2)c1 [L-701,324] | Human IP6K1 (Homo sapiens, UniProt Q92551) | -0.8338

Data credit: paper PMC5706701
